Recorded values, source ChEMBL document CHEMBL3875156.

protocol-text: Half life in human plasma at 2.05 mg/mL
Assay type: ADME, cell-free
# half-life per record follows
Give the quantity in h, number only.

structure-string	measured-parameter	measured-value
CC(C)C[C@H](N)C(=O)NCCc1ccc(O)c(O)c1	half-life	0.767

Exercise: Look up half-life for this compound: N[C@@H](Cc1c[nH]c2ccccc12)C(=O)NCCc1ccc(O)c(O)c1
Solution: 2

====

# logD per record follows
protocol-text: n-octanol-phosphate buffer apparent distribution coefficient, log D of the compound at pH 7.4 by shake flask method
Format: physicochemical
Note: the reply should be a number with no unit written.

structure-string	measured-value
CC(C)C[C@H](N)C(=O)NCCc1ccc(O)c(O)c1	0.18

Could you now consider this next compound?
Exercise: Look up logD for this compound: N[C@@H](Cc1c[nH]c2ccccc12)C(=O)NCCc1ccc(O)c(O)c1
Solution: 0.5
